- target: hPPARδ (Homo sapiens, UniProt Q03181)
- Construct: corresponding to the DEF domains (structural elements of the promoter of the PPARs: D=hinge, EF=ligand fixation domain and AF2 fixation site); expressed in transfected cells; host or cells: COS-7 (monkey kidney fibroblasts)
- test-summary: Gal4-hPPARδ chimera transactivation (luciferase) in COS-7 cells
- Type: cell-based
- reported-conditions: COS-7 cells, Gal4-hPPARδ, luciferase, 24 hours; read-out: PPARδ EC50
pEC50: −log10 of the molar value.
Recorded pEC50 determines the group label, using bucket 1 (below 5), bucket 2 (5 to below 6), bucket 3 (6 or more)

See these solved cases before continuing.
{"columns": ["molecule", "assigned-category"],
 "data": [
  ["COc1nc(-c2ccccc2)ccc1CNc1ccc(SC(C(=O)O)c2ccccc2)cc1 (stereo not drawn)", "bucket 1"],
  ["COc1nc(-c2ccccc2)ccc1CNc1ccc(SC(C)(C)C(=O)O)cc1", "bucket 2"],
  ["COc1ncc(-c2cccc(C(F)(F)F)c2)cc1CNc1ccc(CCC(=O)O)cc1", "bucket 2"],
  ["O=C(O)COc1ccc(OCc2ccc(-c3ccccc3)nc2Sc2ccccc2)cc1", "bucket 2"]
]}

For the record COc1nc(-c2ccccc2)ccc1CNc1cc(C)c(OCC(=O)O)c(C)c1 , report the class its pEC50 corresponds to. bucket 2

For the record CC(C)(C)Oc1nc(-c2ccccc2)ccc1CNc1ccc(OC(C)(C)C(=O)O)cc1 , report the class its pEC50 corresponds to. bucket 3

---

- target: hPPARδ (Homo sapiens)
- Construct: corresponding to the DEF domains (structural elements of the promoter of the PPARs: D=hinge, EF=ligand fixation domain and AF2 fixation site); expressed in transfected cells; host or cells: COS-7 (monkey kidney fibroblasts)
- Sequence (Q03181 211-439 limits assumed): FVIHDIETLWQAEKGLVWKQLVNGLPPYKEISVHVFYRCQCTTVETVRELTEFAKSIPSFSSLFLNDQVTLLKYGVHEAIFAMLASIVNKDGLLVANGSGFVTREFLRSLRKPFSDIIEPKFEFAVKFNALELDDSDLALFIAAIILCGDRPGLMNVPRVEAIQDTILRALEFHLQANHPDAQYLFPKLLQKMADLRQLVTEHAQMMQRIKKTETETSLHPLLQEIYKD
- test-summary: Gal4-hPPARδ chimera transactivation (luciferase) in COS-7 cells
- Format: cell-based
- reported-conditions: COS-7 cells, Gal4-hPPARδ, luciferase, 24 hours; read-out: PPARδ EC50
Overview of recorded EC50 for various molecules
Supply the numeric figure in µM, leaving out any unit text.

Solved entries (count: 10):
{"columns": ["molecule", "quantity-unit", "quantitative-readout"],
 "data": [
  ["COc1nc(-c2ccc(C(F)(F)F)cc2)ccc1COc1ccc(OCC(=O)O)cc1", "µM", 0.784],
  ["O=C(O)COc1ccc(OCc2ccc(-c3ccccc3)nc2OC2CCCCC2)cc1", "µM", 3.97],
  ["CC(Oc1ccc(NCc2ccc(-c3ccccc3)nc2OC(C)(C)C)cc1)C(=O)O (stereo not shown)", "µM", 0.754],
  ["COc1ncc(-c2ccc(C(F)(F)F)cc2)cc1CNc1ccc(CCC(=O)O)cc1", "µM", 0.028],
  ["COc1nc(-c2ccccc2)ccc1CNc1ccc(OC(C)C(=O)O)cc1 (stereo not shown)", "µM", 6.17],
  ["COc1nc(-c2ccc(C(F)(F)F)cc2)ccc1CNc1ccc(CCC(=O)O)cc1", "µM", 0.595],
  ["COc1nc(-c2ccccc2)c(Br)cc1CNc1ccc(SCC(=O)O)cc1", "µM", 10.1],
  ["COc1nc(-c2ccccc2)ccc1CNc1ccc(SCC(=O)O)cc1", "µM", 3.37],
  ["CCOc1nc(-c2ccccc2)ccc1CNc1ccc(CCC(=O)O)cc1", "µM", 1.93],
  ["CC(C)(C)Oc1nc(-c2ccccc2)ccc1COc1ccc(OCC(=O)O)cc1", "µM", 0.55]
]}

State the recorded EC50 for this entry: COc1ncc(-c2ccc(Cl)cc2)cc1CNc1ccc(CCC(=O)O)cc1 0.408

State the recorded EC50 for this entry: COc1cc(NCc2ccc(-c3ccccc3)nc2OC)ccc1CCC(=O)O 1.51

State the recorded EC50 for this entry: CCC(Nc1ccc(CCC(=O)O)cc1)c1ccc(-c2ccccc2)nc1OC (stereo not shown) 0.526

State the recorded EC50 for this entry: CC#CC(CC(=O)O)c1ccc(OCc2ccc(-c3ccccc3)nc2OC)cc1 (stereo not shown) 10.3

State the recorded EC50 for this entry: COc1nc(-c2ccccc2)ccc1CSc1ccc(CCC(=O)O)cc1 12.7

State the recorded EC50 for this entry: COc1nc(-c2ccccc2)ccc1CNc1ccc(CCC(=O)O)cc1 3.13

State the recorded EC50 for this entry: COc1nc(OC)c(-c2ccccc2)cc1CNc1ccc(CCC(=O)O)cc1 16.7

State the recorded EC50 for this entry: COc1nc(-c2ccccc2)ccc1CN(C)c1ccc(CCC(=O)O)cc1 10.5

State the recorded EC50 for this entry: COc1nc(-c2ccccc2)c(-c2ccccc2)cc1CNc1ccc(SCC(=O)O)cc1 25.2
